B1: Pituitary-specific positive transcription factor 1, residues 130 to 198; numbered along this chain, P28069 (parent)
chain: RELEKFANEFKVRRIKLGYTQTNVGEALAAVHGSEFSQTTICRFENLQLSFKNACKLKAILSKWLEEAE

Variants of: B1
Test: abundance fitness (aPCA) (normalised: wild type 0, dead -1); higher = more abundant; growth selection in yeast, the domain comes from the species named
Conditions: Homo sapiens
For each entry below, report its abundance fitness value.
Give a plain numeric answer without units written out.

Which value of abundance fitness has been reported for RELEKFANEFKVRRIKLGYTQTNVGEALAAVHGSEFSQTTICRFENLGLSFKNACKLKAILSKWLEEAE [Q48G] in the records? -0.673

Consider next the variant RELEKFANEFKVRRIKLGYTQMNVGEALAAVHGSEFSQTTICRFENLQLSFKNACKLKAILSKWLEEAE [T22M] in the same way. 0.08

Consider next the variant RELEKFANEFKVRRIKLGYTQTRVGEALAAVHGSEFSQTTICRFENLQLSFKNACKLKAILSKWLEEAE [N23R] in the same way. -0.053

Consider next the variant RELEKFANEFKVSRIKLGYTQTNVGEALAAVHGSEFSQTTICRFENLQLSFKNACKLKAILSKWLEEAE [R13S] in the same way. -0.924

Consider next the variant RELEKFANEFKVRRIKLGYTQTNVGEALAAVHISEFSQTTICRFENLQLSFKNACKLKAILSKWLEEAE [G33I] in the same way. -1

Consider next the variant RELEKFANEFKVRRIKLGYTQTNVGEALAAVHGSEFSQLTICRFENLQLSFKNACKLKAILSKWLEEAE [T39L] in the same way. -0.242

Consider next the variant RELEKFANEFKVRRIKLGYTQTNVGEALAAVHGSEFSQTTICRFENLQLSFKNACKLKAILSKWLEEGE [A68G] in the same way. -0.664

Consider next the variant RELEKFANEFKVRRIKLGYTQTNVGEALAAVHGSEFSQYTICRFENLQLSFKNACKLKAILSKWLEEAE [T39Y] in the same way. -0.447

Consider next the variant RELEKFANEFKVRRIKLGYTQTNVGEALAAVHGSEFSQTTICRFENLQLSFKNACKLYAILSKWLEEAE [K58Y] in the same way. -0.511

Consider next the variant RELEKFANEFKVRRIKLGYGQTNVGEALAAVHGSEFSQTTICRFENLQLSFKNACKLKAILSKWLEEAE [T20G] in the same way. -0.662

Consider next the variant RELEKFANEFKVRRIKLGYTQTQVGEALAAVHGSEFSQTTICRFENLQLSFKNACKLKAILSKWLEEAE [N23Q] in the same way. 0.347

Consider next the variant RELEKFANEFKVRRIKLGYTQTNVGEALAAVHGSEFSQTTICRVENLQLSFKNACKLKAILSKWLEEAE [F44V] in the same way. -0.974

Consider next the variant RHLEKFANEFKVRRIKLGYTQTNVGEALAAVHGSEFSQTTICRFENLQLSFKNACKLKAILSKWLEEAE [E2H] in the same way. -0.968

Consider next the variant RELEKFANEFKVRRIKLLYTQTNVGEALAAVHGSEFSQTTICRFENLQLSFKNACKLKAILSKWLEEAE [G18L] in the same way. -0.62

Consider next the variant RELEKFANEFKVRRIKLGYTQTNVGEALAAVHGSEFSQTTICRFENLQLSFKNSCKLKAILSKWLEEAE [A54S] in the same way. 0.06

Consider next the variant RELEKFANEFKVRRIKLGYTQTNVGEALAGVHGSEFSQTTICRFENLQLSFKNACKLKAILSKWLEEAE [A30G] in the same way. -0.298

Consider next the variant RELEKFANEFKVRRIKLGYTQTNVGEALAVVHGSEFSQTTICRFENLQLSFKNACKLKAILSKWLEEAE [A30V] in the same way. -0.444

Consider next the variant RELEKFANEFKVRRIKLGYTQTNVGEALAAVHGSEFSQTTICRFESLQLSFKNACKLKAILSKWLEEAE [N46S] in the same way. -0.085

Consider next the variant RELEKFANEFKVRRIKLGYTQTNVGEALAAVHGREFSQTTICRFENLQLSFKNACKLKAILSKWLEEAE [S34R] in the same way. -0.038

Consider next the variant RELEKFANEFKVRRIKLGYTQTNVGEALAAVHGSEFSQTTICRYENLQLSFKNACKLKAILSKWLEEAE [F44Y] in the same way. -0.842

Consider next the variant RELEKFANEFKVRRIKLGYTQTNVGEALAAVHGSEFSQTTICRFENLQLSFKNACKLKAWLSKWLEEAE [I60W] in the same way. -0.611

Consider next the variant RELEKFANEFKVRRIKLGYTQTNVGEALAAVHGSEFSQTTICRFENLQLSFKNACKLKAILSKWLEELE [A68L] in the same way. -0.778

Data provenance is the Human Domainome abundance scans (Beltran et al. 2025).
